Target: hCA XII (Homo sapiens, UniProt O43570)
Construct: gene CA12; recombinant, obtained in-house
Sequence (O43570 30-289 limits assumed): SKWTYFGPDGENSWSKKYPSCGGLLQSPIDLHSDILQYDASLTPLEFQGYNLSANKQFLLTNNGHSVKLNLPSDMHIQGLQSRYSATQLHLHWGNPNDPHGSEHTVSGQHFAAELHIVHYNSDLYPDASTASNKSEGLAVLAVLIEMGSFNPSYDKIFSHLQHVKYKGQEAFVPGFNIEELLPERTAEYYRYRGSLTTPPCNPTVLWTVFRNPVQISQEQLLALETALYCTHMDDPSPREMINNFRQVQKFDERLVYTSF
Test: biochemical
Design: Stopped-flow CO2 hydrase assay, phenol red absorbance at 557 nm, KI by Cheng-Prusoff
propertyName: Ki (nM)
Answers are plain numbers, in nM.

// query Test system hCA XII (Homo sapiens, UniProt O43570); read-out Ki; what value for C#CCN1C(=O)C=C(C)OS1(=O)=O [b] ?
// result 378

Further cases:
// query Test system hCA XII (Homo sapiens, UniProt O43570); read-out Ki; what value for C#CCOc1cccc2cc(C(=O)c3ccccc3)c(=O)oc12 [f] ?
// result 4920
